Assay: Pharmacokinetic experiment in monkeys
Format: in vivo
Details: male, cynomolgus monkey, plasma, PO 15 mg/kg
observable: AUC (ng·h/mL)
Enter your answer as a number in ng·h/mL; do not include the unit.

Endpoint output: AUC of [2H]C([2H])(NC(=O)c1cc(Cl)c2c(c1C)OC(C)(C1CCC(NC3COC3)CC1)O2)c1c(SC)cc(C)[nH]c1=O (single isomer, unassigned) [Compound 59, isomer 2] . Value? 3310

###

For each of the molecules below, state its C0.
Test: Pharmacokinetic experiment in mice (intravenous 5 mg/kg or intragastric 30 mg/kg)
Assay type: in vivo
Conditions: male, ICR, mouse, plasma, iv, 5 mg/kg, IV 5 mg/kg, read-out: C0
Enter your answer as a number in ng/mL; do not include the unit.

Endpoint output: C0 of [2H]C([2H])(NC(=O)c1cc(Cl)c2c(c1C)OC(C)([C@H]1CC[C@@H](NC3CC(F)(F)C3)CC1)O2)c1c(SC)cc(C)[nH]c1=O (single isomer, unassigned) [Compound 44, isomer 1] . Value? 2340

Endpoint output: C0 of [2H]C([2H])(NC(=O)c1cc(Cl)c2c(c1C)OC(C)(C1CCC(N[C@H]3C[C@H](F)C3)CC1)O2)c1c(SC)cc(C)[nH]c1=O (single isomer, unassigned) [Compound 53, isomer 1] . Value? 2360

Endpoint output: C0 of Cc1cc(C)c(CNC(=O)c2cc(Cl)c3c(c2C)O[C@@](C)([C@H]2CC[C@H](N(C)C)CC2)O3)c(=O)[nH]1 [Compound I-2, Valemetostat, reference compound] . Value? 2140

Endpoint output: C0 of [2H]C([2H])(NC(=O)c1cc(Cl)c2c(c1C)OC(C)(C1CCN(CC3CC3)CC1)O2)c1c(SC)cc(C)[nH]c1=O (stereo not shown) . Value? 1970

###

Assay: Pharmacokinetic experiment in mice (single intragastric dose, 20 mg/kg)
Conditions: male, ICR, mouse, plasma, po
observable: Cmax
Just so you know, I need the unit written after the number.

Endpoint output: Cmax of CSc1cc(C)[nH]c(=O)c1CNC(=O)c1cc(Cl)c2c(c1C)OC(C)([C@H]1CC[C@@H](N[C@H]3C[C@H](F)C3)CC1)O2 (single isomer, unassigned) [Compound 34, isomer 1] . Value? 598 ng/mL

###

For each of the compounds below, state its pIC50.
Molecular target: EZH2 (Homo sapiens (Human))
Sequence (Q15910 other isoform, or with tags, fused parts or gaps isoform Q15910-2): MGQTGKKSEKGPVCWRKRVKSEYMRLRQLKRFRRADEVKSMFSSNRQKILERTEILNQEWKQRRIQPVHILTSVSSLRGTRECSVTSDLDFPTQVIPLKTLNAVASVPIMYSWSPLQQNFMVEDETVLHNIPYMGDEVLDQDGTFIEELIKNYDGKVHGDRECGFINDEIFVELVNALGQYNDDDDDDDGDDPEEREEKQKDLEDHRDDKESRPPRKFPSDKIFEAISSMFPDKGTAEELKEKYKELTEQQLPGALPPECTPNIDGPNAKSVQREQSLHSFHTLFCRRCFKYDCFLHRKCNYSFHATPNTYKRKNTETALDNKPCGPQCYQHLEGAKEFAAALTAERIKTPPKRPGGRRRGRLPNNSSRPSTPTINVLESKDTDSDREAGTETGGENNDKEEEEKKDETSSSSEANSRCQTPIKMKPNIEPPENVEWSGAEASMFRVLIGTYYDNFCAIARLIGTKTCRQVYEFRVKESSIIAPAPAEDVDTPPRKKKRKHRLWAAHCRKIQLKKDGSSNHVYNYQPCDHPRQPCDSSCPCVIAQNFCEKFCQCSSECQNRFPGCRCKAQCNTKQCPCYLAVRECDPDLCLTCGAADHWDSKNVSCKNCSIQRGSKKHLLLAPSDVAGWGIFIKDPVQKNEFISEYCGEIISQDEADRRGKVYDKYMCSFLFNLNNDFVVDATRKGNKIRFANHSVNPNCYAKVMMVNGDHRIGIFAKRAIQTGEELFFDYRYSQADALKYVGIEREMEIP
Sequence (O75530 2-441 partner): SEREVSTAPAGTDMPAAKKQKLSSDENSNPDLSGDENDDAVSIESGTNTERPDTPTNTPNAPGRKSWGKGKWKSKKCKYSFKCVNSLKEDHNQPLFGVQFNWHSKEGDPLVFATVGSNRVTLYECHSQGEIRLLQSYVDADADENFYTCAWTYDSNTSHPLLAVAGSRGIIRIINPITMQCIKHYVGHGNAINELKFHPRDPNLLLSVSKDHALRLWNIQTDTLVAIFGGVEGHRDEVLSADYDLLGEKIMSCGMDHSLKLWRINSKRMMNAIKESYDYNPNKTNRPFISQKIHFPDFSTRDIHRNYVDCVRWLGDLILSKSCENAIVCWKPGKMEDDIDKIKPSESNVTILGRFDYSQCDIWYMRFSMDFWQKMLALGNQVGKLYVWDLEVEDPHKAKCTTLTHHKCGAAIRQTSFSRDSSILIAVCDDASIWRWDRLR
Sequence (Q15022 2-739 partner): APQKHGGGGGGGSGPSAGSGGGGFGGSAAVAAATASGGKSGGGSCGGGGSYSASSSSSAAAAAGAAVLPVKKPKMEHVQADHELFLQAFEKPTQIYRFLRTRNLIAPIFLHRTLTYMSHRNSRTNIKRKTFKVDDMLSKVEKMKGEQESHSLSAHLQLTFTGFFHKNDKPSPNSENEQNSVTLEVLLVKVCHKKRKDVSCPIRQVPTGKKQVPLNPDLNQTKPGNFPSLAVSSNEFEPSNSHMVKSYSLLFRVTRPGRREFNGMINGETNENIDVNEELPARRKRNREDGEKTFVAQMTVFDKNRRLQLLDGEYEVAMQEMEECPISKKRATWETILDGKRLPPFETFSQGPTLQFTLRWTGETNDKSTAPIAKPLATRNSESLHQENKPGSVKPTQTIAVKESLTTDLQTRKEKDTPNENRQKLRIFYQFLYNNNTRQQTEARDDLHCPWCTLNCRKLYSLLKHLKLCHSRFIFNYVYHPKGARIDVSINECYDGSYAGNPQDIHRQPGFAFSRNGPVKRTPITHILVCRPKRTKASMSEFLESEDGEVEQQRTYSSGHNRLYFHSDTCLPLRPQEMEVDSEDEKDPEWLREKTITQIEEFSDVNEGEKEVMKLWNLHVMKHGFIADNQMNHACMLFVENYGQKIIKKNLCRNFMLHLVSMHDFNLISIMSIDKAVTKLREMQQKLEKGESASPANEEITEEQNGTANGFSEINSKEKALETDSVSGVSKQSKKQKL
Sequence (Q09028 2-425 partner): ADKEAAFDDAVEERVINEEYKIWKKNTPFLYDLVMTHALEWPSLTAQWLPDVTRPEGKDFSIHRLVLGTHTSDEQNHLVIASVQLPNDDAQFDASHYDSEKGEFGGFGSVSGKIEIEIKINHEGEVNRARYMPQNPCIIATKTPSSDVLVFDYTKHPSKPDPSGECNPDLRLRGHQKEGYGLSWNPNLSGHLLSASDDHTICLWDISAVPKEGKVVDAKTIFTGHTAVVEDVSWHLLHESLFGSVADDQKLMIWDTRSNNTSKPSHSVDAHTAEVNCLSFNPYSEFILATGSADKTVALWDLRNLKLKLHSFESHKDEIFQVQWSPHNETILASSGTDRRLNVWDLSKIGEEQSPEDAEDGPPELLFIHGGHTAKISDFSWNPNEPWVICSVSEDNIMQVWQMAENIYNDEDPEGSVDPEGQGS
Sequence (Q6ZN18 whole entry partner): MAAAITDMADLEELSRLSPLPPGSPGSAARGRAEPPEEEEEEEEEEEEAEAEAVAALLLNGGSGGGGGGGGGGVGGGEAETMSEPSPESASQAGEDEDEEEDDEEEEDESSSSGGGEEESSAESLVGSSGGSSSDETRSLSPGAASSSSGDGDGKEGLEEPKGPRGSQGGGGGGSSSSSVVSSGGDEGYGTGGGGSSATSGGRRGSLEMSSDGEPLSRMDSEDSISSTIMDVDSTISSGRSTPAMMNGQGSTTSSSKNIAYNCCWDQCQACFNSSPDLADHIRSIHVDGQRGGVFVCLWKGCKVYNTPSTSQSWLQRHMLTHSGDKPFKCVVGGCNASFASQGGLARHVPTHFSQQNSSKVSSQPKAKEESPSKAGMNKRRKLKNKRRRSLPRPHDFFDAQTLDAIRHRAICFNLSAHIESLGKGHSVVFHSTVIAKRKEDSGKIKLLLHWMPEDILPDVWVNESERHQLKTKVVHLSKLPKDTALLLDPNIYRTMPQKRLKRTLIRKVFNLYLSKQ
Units for pIC50: none; it is -log10 of a concentration expressed in mol/L.

Endpoint output: pIC50 of CSc1cc(C)[nH]c(=O)c1CNC(=O)c1cc(Cl)c2c(c1C)OC(C)(C1CCC(N3CC(N(C)C)C3)CC1)O2 (single isomer, unassigned) [Compound 1, isomer 1] . Value? 9.17

Endpoint output: pIC50 of [2H]C([2H])(NC(=O)c1cc(Cl)c2c(c1C)OC(C)(C1CCC(N[C@H]3C[C@H](F)C3)CC1)O2)c1c(SC)cc(C)[nH]c1=O (single isomer, unassigned) [Compound 53, isomer 1] . Value? 9.48

Endpoint output: pIC50 of CSc1cc(C)[nH]c(=O)c1CNC(=O)c1cc(Cl)c2c(c1C)OC(C)([C@H]1CC[C@@H](N3CC4CN(C)CC4C3)CC1)O2 (single isomer, unassigned) [Compound 42, isomer 2] . Value? 9.64

Endpoint output: pIC50 of [2H]C([2H])(NC(=O)c1cc(Cl)c2c(c1C)OC(C)([C@H]1CC[C@@H](N3CC4COCC4C3)CC1)O2)c1c(SC)cc(C)[nH]c1=O (single isomer, unassigned) [Compound 60, isomer 1] . Value? 9.74

Endpoint output: pIC50 of CSc1cc(C)[nH]c(=O)c1CNC(=O)c1cc(Cl)c2c(c1C)OC(C)(C1CCN(C(=O)C3CC(F)(F)C3)CC1)O2 (single isomer, unassigned; isomer 2) [Compound 11, isomer 2] . Value? 9.06

###

For each of the compounds below, state its half-life.
Test: Pharmacokinetic experiment in mice (intravenous 5 mg/kg or intragastric 30 mg/kg)
Assay type: in vivo
Conditions: male, ICR, mouse, plasma, iv, 5 mg/kg, IV 5 mg/kg
Enter your answer as a number in h; do not include the unit.

Endpoint output: half-life of [2H]C([2H])(NC(=O)c1cc(Cl)c2c(c1C)OC(C)(C1CCN(CC3CC3)CC1)O2)c1c(SC)cc(C)[nH]c1=O (stereo not drawn) [Compound 27] . Value? 1.42

Endpoint output: half-life of [2H]C([2H])(NC(=O)c1cc(Cl)c2c(c1C)OC(C)(C1CCC(N[C@H]3C[C@H](F)C3)CC1)O2)c1c(SC)cc(C)[nH]c1=O (single isomer, unassigned) [Compound 53, isomer 1] . Value? 1.21

Endpoint output: half-life of Cc1cc(C)c(CNC(=O)c2cc(Cl)c3c(c2C)O[C@@](C)([C@H]2CC[C@H](N(C)C)CC2)O3)c(=O)[nH]1 [Compound I-2, Valemetostat, reference compound] . Value? 6.31

###

observable: pIC50
Units for pIC50: none; it is -log10 of a concentration expressed in mol/L.

For the record CSc1cc(C)[nH]c(=O)c1CNC(=O)c1cc(Cl)c2c(c1C)OC(C)([C@H]1CC[C@@H](N[C@H]3C[C@H](F)C3)CC1)O2 (single isomer, unassigned) [Compound 34, isomer 2] , what value of pIC50 is listed for EZH2 (Homo sapiens (Human), UniProt Q15910)? 9.24

For the record CSc1cc(C)[nH]c(=O)c1CNC(=O)c1cc(Cl)c2c(c1C)OC(C)(C1CCC(N3CC(C#N)C3)CC1)O2 (single isomer, unassigned) [Compound 2, isomer 2] , what value of pIC50 is listed for EZH2 (Homo sapiens (Human), UniProt Q15910)? 9.14

For the record CSc1cc(C)[nH]c(=O)c1CNC(=O)c1cc(Cl)c2c(c1C)OC(C)([C@H]1CC[C@H](CNC3CC(F)(F)C3)CC1)O2 (single isomer, unassigned) [Compound 40, isomer 2] , what value of pIC50 is listed for EZH2 (Homo sapiens (Human), UniProt Q15910)? 9.29

For the record CSc1cc(C)[nH]c(=O)c1CNC(=O)c1cc(Cl)c2c(c1C)OC(C)(C1CCC(N3CC(N(C)C)C3)CC1)O2 (single isomer, unassigned) [Compound 1, isomer 2] , what value of pIC50 is listed for EZH2 (Homo sapiens (Human), UniProt Q15910)? 9.22

For the record CSc1cc(C)[nH]c(=O)c1CNC(=O)c1cc(Cl)c2c(c1C)OC(C)(C1CCC(N3CC(C#N)C3)CC1)O2 (single isomer, unassigned) [Compound 2, isomer 1] , what value of pIC50 is listed for EZH2 (Homo sapiens (Human), UniProt Q15910)? 9.04

For the record CSc1cc(C)[nH]c(=O)c1CNC(=O)c1cc(Cl)c2c(c1C)OC(C)([C@H]1CC[C@@H](N[C@H]3C[C@H](F)C3)CC1)O2 (single isomer, unassigned) [Compound 34, isomer 1] , what value of pIC50 is listed for EZH2 (Homo sapiens (Human), UniProt Q15910)? 9.24

For the record CSc1cc(C)[nH]c(=O)c1CNC(=O)c1cc(Cl)c2c(c1C)OC(C)([C@H]1CC[C@H](C(=O)N3CC(F)(F)C3)CC1)O2 (single isomer, unassigned; isomer 1) [Compound 47, isomer 1] , what value of pIC50 is listed for EZH2 (Homo sapiens (Human), UniProt Q15910)? 9.47

For the record CSc1cc(C)[nH]c(=O)c1CNC(=O)c1cc(Cl)c2c(c1C)OC(C)(C1CCN(C(=O)C3CC(F)(F)C3)CC1)O2 (single isomer, unassigned; isomer 1) [Compound 11, isomer 1] , what value of pIC50 is listed for EZH2 (Homo sapiens (Human), UniProt Q15910)? 9.14

For the record CSc1cc(C)[nH]c(=O)c1CNC(=O)c1cc(Cl)c2c(c1C)OC(C)(C1CCC(NC3COC3)CC1)O2 (single isomer, unassigned) [Compound 61, isomer 1] , what value of pIC50 is listed for EZH2 (Homo sapiens (Human), UniProt Q15910)? 9.28

For the record CSc1cc(C)[nH]c(=O)c1CNC(=O)c1cc(Cl)c2c(c1C)OC(C)([C@H]1CC[C@@H](N3CC[Si](C)(C)CC3)CC1)O2 (single isomer, unassigned) [Compound 49, isomer 1] , what value of pIC50 is listed for EZH2 (Homo sapiens (Human), UniProt Q15910)? 9.29

###

Experiment: Pharmacokinetic experiment in mice (intravenous 5 mg/kg or intragastric 30 mg/kg)
Format: in vivo
Conditions: male, ICR, mouse, plasma, iv, 5 mg/kg, IV 5 mg/kg, read-out: AUC
Description: The administration was performed according to table 5. The concentrations of the compounds in EDTA-K2 anticoagulant plasma were determined by the LC-MS/MS method. The linear range of the standard curve of the compounds is 2-2000 ng/mL. After subjected to precipitating proteins with acetonitrile, the samples were analyzed by LC-MS/MS. […]
observable: AUC (ng·h/mL)
Enter your answer as a number in ng·h/mL; do not include the unit.

Endpoint output: AUC of [2H]C([2H])(NC(=O)c1cc(Cl)c2c(c1C)OC(C)(C1CCC(N[C@H]3C[C@H](F)C3)CC1)O2)c1c(SC)cc(C)[nH]c1=O (single isomer, unassigned) [Compound 53, isomer 1] . Value? 703

Endpoint output: AUC of [2H]C([2H])(NC(=O)c1cc(Cl)c2c(c1C)OC(C)(C1CCN(CC3CC3)CC1)O2)c1c(SC)cc(C)[nH]c1=O (stereo not shown) . Value? 839

Endpoint output: AUC of [2H]C([2H])(NC(=O)c1cc(Cl)c2c(c1C)OC(C)([C@H]1CC[C@@H](NC3CC(F)(F)C3)CC1)O2)c1c(SC)cc(C)[nH]c1=O (single isomer, unassigned) [Compound 44, isomer 1] . Value? 574

Endpoint output: AUC of Cc1cc(C)c(CNC(=O)c2cc(Cl)c3c(c2C)O[C@@](C)([C@H]2CC[C@H](N(C)C)CC2)O3)c(=O)[nH]1 [Compound I-2, Valemetostat, reference compound] . Value? 1180

Attribution: patent US20230365541A1
